- systemUnderTest: Orexin receptor type 2 (Homo sapiens) (UniProt O43614)
- Sequence (O43614 whole entry): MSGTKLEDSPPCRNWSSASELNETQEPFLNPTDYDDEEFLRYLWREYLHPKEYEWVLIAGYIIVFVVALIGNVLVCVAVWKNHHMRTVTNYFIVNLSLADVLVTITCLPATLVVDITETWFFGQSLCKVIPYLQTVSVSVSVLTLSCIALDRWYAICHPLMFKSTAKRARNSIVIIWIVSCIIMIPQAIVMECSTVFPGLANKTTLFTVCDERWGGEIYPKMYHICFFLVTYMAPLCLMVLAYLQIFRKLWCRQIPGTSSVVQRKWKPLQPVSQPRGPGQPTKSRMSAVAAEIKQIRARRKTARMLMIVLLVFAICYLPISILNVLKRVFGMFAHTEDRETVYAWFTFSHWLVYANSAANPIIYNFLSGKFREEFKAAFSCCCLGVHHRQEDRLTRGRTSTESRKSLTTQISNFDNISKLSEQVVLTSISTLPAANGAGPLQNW
- protocolDetails: Displacement of [125I]-orexin-A from human OX2 receptor expressed in CHOK1 cells at 10 uM incubated for 10 mins and measured after 90 mins by liquid scintillation counting method relative to control
- Type: cell-based
observationType: inhibition (%)
# value in %; strip the unit string

(Q) # return recorded inhibition for entry `COC(=O)c1ccc2c(I)cc(C(=O)c3ccccc3)c-2cc1`
(A) -5.4

(Q) Identify measured inhibition corresponding to `COC(=O)CCC(=O)Oc1ccc2ccc(Cl)ccc1-2`
(A) 24.3

(Q) Output inhibition of `COC(=O)c1ccc2c(C=O)cc(-c3ccccc3)c-2cc1`
(A) 1.8

(Q) Note inhibition for the compound shown: `O=C(O)c1ccc2ccc(C(=O)c3ccccc3)c-2cc1`
(A) 32.9

(Q) Kindly indicate its recorded inhibition. Item: `COC(=O)c1ccc2ccc(C(=O)c3ccccc3)c-2cc1`
(A) 28.9

(Q) Entry `CCOc1ccc(-c2cc(C(=O)c3ccccc3)c3ccc(C(=O)OC)ccc2-3)cc1` needs its inhibition filled in; supply it.
(A) 19.1
